Target: PKC-delta (Homo sapiens, UniProt Q05655)
Construct: purchased Calbiochem
Sequence (Q05655 whole entry): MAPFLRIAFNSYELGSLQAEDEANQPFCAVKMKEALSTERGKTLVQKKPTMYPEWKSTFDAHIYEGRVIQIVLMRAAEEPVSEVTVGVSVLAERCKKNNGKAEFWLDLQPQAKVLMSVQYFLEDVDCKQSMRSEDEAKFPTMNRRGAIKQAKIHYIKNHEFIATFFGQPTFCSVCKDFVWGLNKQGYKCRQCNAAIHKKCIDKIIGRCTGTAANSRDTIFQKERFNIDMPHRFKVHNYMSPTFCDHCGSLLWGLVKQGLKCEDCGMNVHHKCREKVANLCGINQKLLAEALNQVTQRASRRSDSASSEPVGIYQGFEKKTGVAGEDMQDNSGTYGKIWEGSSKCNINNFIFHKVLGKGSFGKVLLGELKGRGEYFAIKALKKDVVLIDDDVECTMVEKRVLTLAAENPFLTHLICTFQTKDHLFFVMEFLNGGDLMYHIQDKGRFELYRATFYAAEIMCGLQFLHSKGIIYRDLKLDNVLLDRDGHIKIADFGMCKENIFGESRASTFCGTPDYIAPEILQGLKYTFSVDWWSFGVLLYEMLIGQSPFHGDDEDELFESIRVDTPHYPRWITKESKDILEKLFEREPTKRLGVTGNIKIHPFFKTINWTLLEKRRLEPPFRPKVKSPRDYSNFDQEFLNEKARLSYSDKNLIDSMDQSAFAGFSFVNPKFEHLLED
Test: In vitro kinase assay: peptide phosphorylation by PKC-delta
Assay type: biochemical
Conditions: peptide concentration 10 uM
Experimental: One approach to validating a substrate identification method can involve, for example, comparison of substrate sites predicted by the method with in vitro phosphorylation results obtained using the selected kinase and peptides of known sequences. […] Table 2 compares the present predictions with actual measurements of phosphorylation on validating peptides. […] In vitro phosphorylation of these validating peptides was measured in the manner described herein. […]
The label is 1 for phosphorylation by PKC-delta below 20 and -1 for phosphorylation by PKC-delta equal to or exceeding 20.

>>> assigned_class("144 (LSSMFGTLPRKSRKGSVRKQ) [compound 144]")
-1
>>> assigned_class("118 (RPQNTLKASKKKKRASFKRK) [compound 118]")
-1
>>> assigned_class("163 (PPRTPGWHQLQPRRVSFRGE) [compound 163]")
-1
>>> assigned_class("138 (EYLERRASRRRAV) [compound 138]")
-1
>>> assigned_class("119 (KKRFSFKKSFKLSGFSFKKN) [compound 119]")
1
>>> assigned_class("167 (GLPAPGEDKSIYRRGSRRWR) [compound 167]")
-1
>>> assigned_class("123 (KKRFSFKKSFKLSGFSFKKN) [compound 123]")
-1
>>> assigned_class("156 (SAQITIPKDGQKRKKSLRKK) [compound 156]")
-1
>>> assigned_class("152 (DLIEGRKGAQIVKRASLKRG) [compound 152]")
1
>>> assigned_class("164 (TEGKMARVAWKGKRRSKARK) [compound 164]")
-1
>>> assigned_class("157 (PSPSNETPKKKKKRFSFKKS) [compound 157]")
-1
>>> assigned_class("117 (NRKKKRTSFKRKA) [compound 117]")
-1
>>> assigned_class("143 (VRYTPYTISPYNRKGSFRKQ) [compound 143]")
-1
>>> assigned_class("140 (TELEGGFSRQRKRKLSFRRR) [compound 140]")
-1
>>> assigned_class("116 (EEGTFRSSIRRLSTRRR) [compound 116]")
-1
>>> assigned_class("115 (NRKKKRTSFKRKA) [compound 115]")
-1
>>> assigned_class("134 (RSRSRSRSKSKDKRKSRKRS) [compound 134]")
1
>>> assigned_class("162 (KKKFSFKKPFKLSGLSFKRN) [compound 162]")
1
>>> assigned_class("129 (VQRHRSMRKTFARYLSFRRD) [compound 129]")
1
>>> assigned_class("124 (PRLIRRGSKKRPAR) [compound 124]")
-1
>>> assigned_class("158 (VQMTWSYPDEKNKRASVRRR) [compound 158]")
-1
>>> assigned_class("149 (RVVQSVKHTKRKSSTVMK) [compound 149]")
1
>>> assigned_class("122 (RAITSTLASSFKRRR) [compound 122]")
-1
